Molecular target: yeast Gal4-DNA binding domain fused to the ligand binding domain of human RORγ (Homo sapiens)
Construct: host or cells: HEK293t
Sequence (P51449 269-508 limits assumed): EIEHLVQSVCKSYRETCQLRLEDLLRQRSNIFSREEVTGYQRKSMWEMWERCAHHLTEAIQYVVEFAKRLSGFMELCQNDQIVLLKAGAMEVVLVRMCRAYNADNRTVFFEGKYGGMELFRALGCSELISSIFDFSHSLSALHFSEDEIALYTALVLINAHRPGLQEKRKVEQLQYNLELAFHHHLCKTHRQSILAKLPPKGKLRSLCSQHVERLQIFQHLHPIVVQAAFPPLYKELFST
Experiment: RORγ Reporter Assay (Gal4)
Assay type: cell-based
Conditions: RORγ Reporter Assay (Gal4) at 1 μM; values given as lower bounds of ranges
Description: The activity of the compounds was evaluated using a Fluorescence Polarization (FP) Assay and, in most cases, a Th17 Assay and/or RORγ Reporter assay (also referred to as Gal4 assay). The FP assay is an in vitro assay monitoring binding within the ligand binding pocket. The RORγ and the Th17 assays are both cell-based assays monitoring functional activity of the compound assayed. […]
Exercise: state measured Gal4 activity range @ 1 μM (% inhibition) for each of the compounds provided.

Enquiry: Item N#CC[C@H]1CC[C@H](CNc2ncnc(N3CCOC[C@@H]3c3ccc(C(F)(F)F)cc3)c2F)CC1 has what recorded Gal4 activity range @ 1 μM (% inhibition)?
Return: >80 % inhibition

Enquiry: Item NC(=O)Cc1ccc(CNc2ncnc(N3CCCC3c3cccc(Br)c3)c2F)cc1 (centres unmarked) has what recorded Gal4 activity range @ 1 μM (% inhibition)?
Return: >80 % inhibition

Enquiry: Item O=S(=O)(Nc1ccc(CNc2ncnc(N3CCOC[C@@H]3c3ccc(C(F)(F)F)cc3)c2F)cc1)C(F)(F)F has what recorded Gal4 activity range @ 1 μM (% inhibition)?
Return: >50 % inhibition

Enquiry: Item O=C(O)Cc1ccc(CNc2ncnc(N3CCC[C@@H]3c3ccc(C(F)(F)F)cc3)c2F)s1 has what recorded Gal4 activity range @ 1 μM (% inhibition)?
Return: >80 % inhibition

Enquiry: Item NC(=O)Cc1ccc(Cn2ccc3c(N4CCOC[C@@H]4c4ccc(C(F)(F)F)nc4)ncnc32)cc1 has what recorded Gal4 activity range @ 1 μM (% inhibition)?
Return: >80 % inhibition

Enquiry: Item O=C(c1ccncc1)N1CCC(Nc2ncnc(N3CCCC3c3ccc(C(F)(F)F)cc3)c2F)C1 (centres unmarked) has what recorded Gal4 activity range @ 1 μM (% inhibition)?
Return: >50 % inhibition

Enquiry: Item CC1(c2ccc(C(F)(F)F)cc2)CCCN1c1ncnc(NCc2ccc(CC(N)=O)cc2)c1F (centres unmarked) has what recorded Gal4 activity range @ 1 μM (% inhibition)?
Return: >80 % inhibition

Enquiry: Item CC(C)(C)C[C@H](CO)Nc1ncnc(N2CCCC2c2ccc(C(F)(F)F)cc2)c1F (some centres unmarked) has what recorded Gal4 activity range @ 1 μM (% inhibition)?
Return: >80 % inhibition
